- measured target: Tyk2 (Homo sapiens (Human), UniProt P29597)
- Sequence (P29597 whole entry): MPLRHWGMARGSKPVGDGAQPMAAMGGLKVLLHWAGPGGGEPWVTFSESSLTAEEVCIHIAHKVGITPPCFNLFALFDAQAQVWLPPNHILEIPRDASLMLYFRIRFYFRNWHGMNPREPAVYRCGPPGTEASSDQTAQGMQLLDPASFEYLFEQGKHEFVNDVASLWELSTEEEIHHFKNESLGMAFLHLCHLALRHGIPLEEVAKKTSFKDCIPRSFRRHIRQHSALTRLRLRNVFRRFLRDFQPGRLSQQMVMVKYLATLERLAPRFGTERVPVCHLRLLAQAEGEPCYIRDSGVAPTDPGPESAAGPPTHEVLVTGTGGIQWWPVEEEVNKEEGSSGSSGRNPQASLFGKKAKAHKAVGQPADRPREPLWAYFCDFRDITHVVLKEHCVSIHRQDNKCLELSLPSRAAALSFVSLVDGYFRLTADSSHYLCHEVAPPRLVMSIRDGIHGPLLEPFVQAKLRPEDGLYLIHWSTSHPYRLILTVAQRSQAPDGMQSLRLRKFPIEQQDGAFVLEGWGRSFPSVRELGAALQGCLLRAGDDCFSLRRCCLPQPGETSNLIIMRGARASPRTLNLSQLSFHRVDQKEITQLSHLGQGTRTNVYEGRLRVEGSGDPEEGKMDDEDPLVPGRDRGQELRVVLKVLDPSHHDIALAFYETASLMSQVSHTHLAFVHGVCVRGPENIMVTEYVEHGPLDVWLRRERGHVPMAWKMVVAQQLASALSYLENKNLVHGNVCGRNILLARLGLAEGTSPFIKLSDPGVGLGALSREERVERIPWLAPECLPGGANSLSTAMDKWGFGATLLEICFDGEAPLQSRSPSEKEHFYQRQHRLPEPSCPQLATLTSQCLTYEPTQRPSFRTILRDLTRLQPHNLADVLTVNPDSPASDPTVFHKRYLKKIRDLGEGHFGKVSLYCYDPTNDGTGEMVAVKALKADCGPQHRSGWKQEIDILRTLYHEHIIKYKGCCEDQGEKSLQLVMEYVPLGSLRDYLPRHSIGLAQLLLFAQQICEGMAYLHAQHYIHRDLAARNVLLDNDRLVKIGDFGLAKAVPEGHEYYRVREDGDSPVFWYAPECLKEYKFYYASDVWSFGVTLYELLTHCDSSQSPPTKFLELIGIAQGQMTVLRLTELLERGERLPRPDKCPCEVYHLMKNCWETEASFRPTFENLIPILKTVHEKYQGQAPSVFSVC
- assay info: pSTAT4 Cell Assay (MSD, NK92 cells)
- Assay type: cell-based
- assay conditions: MSD
pIC50: −log10 of the molar value.
// pIC50 lookup, one value per entry

>  <molecule>
CC(=O)Nc1cc(Nc2cc(C)nc(C(C)(F)F)n2)c(OCC2CCO2)cn1 (stereo not shown)

>  <measured target>
Tyk2 (Homo sapiens (Human), UniProt P29597)

>  <pIC50>
7.00 to 8.00

$$$$
>  <molecule>
CC(=O)Nc1cc(Nc2cc(OC3CC3)nc(C(C)(F)F)n2)c(OCC2CCCO2)cn1 (stereo not shown)

>  <measured target>
Tyk2 (Homo sapiens (Human), UniProt P29597)

>  <pIC50>
≥ 8.00

$$$$
>  <molecule>
CC(=O)Nc1cc(Nc2cc(OC3CC3)nc(C(C)(F)F)n2)c(OC[C@H]2COCCO2)cn1 (single isomer, unassigned)

>  <measured target>
Tyk2 (Homo sapiens (Human), UniProt P29597)

>  <pIC50>
≥ 8.00

$$$$

Give the measured pIC50 of CC(=O)Nc1cc(Nc2cc(C)nc(C(C)(F)F)n2)c(-c2ccc(CN3CCOCC3)cn2)cn1 .
≥ 8.00

Give the measured pIC50 of CCn1ccc(-c2cnc(NC(C)=O)cc2Nc2ccnc(C(C)(F)F)n2)n1 .
≥ 8.00

Give the measured pIC50 of CC(=O)Nc1cc(Nc2cc(C)nc(C(C)(F)F)n2)c(-c2ncc(F)cn2)cn1 .
7.00 to 8.00

Give the measured pIC50 of COc1cc(-c2cnc(NC(C)=O)cc2Nc2cc(C)nc(C(C)(C)F)n2)ncn1 .
7.00 to 8.00

Give the measured pIC50 of CC(=O)Nc1cc(Nc2cc(C)nc(C(C)(C)F)n2)c(-c2cn3c(n2)COCC3)cn1 .
≥ 8.00

Give the measured pIC50 of COc1cccc(-c2cnc(NC(C)=O)cc2Nc2cc(C)nc(C(C)(F)F)n2)n1 .
≥ 8.00
